Assay: Cytotoxicity against human SN12C cells assessed as growth inhibition after 48 hrs by SRB assay
Type: functional
The label label 1 is reserved for GI50 strictly under 10000 nM; label 0 covers values equal to or above it.

chemical string | class name
COc1ccc(CN2c3ccccc3Sc3ccccc32)cc1F | label 1
COc1ccc(CN2c3ccccc3Sc3ccccc32)cc1O | label 1

State whether 10000 nM exceeds GI50 recorded for COc1ccc(CN2c3ccccc3Sc3ccccc32)c(F)c1 .
label 0

Just wondering, is GI50 of COc1ccc(CN2c3ccccc3CCc3ccccc32)cc1F below 10000 nM?
label 1

====

GI50 overview
Experiment: Cytotoxicity against human UO31 cells assessed as growth inhibition after 48 hrs by SRB assay
Type: functional
Conditions: UO-31, 48 h
Provide only the numeric value, understood in nM.

Answered cases to consult:
chemical string | GI50 / nM
COc1ccc(CN2c3ccccc3Sc3ccccc32)c(C(F)(F)F)c1 | 3980
COc1ccc(CN2c3ccccc3CCc3ccccc32)cc1F | 814
COc1ccc(CN2c3ccccc3Sc3ccccc32)cc1F | 916

# ---- query compound ----
get_value(item= COc1ccc(CN2c3ccccc3Sc3ccccc32)cc1O , readout=GI50) returns 752
